SETTINGS: in ethanol, 323.15 K
EXPERIMENTAL ENDPOINT: solubility (mole fraction)

>>> measured_result("CCCN(CCC)S(=O)(=O)c1ccc(C(=O)O)cc1")
0.0279

###

SETTINGS: in ethanol, 293.15 K
EXPERIMENTAL ENDPOINT: solubility (mole fraction)

>>> measured_result("CCCN(CCC)S(=O)(=O)c1ccc(C(=O)O)cc1")
0.00797

###

SETTINGS: in n-butyl acetate, 308.15 K
EXPERIMENTAL ENDPOINT: solubility (mole fraction)

>>> measured_result("CCCN(CCC)S(=O)(=O)c1ccc(C(=O)O)cc1")
0.00773

###

SETTINGS: in n-pentanol, 323.15 K
EXPERIMENTAL ENDPOINT: solubility (mole fraction)

>>> measured_result("CCCN(CCC)S(=O)(=O)c1ccc(C(=O)O)cc1")
0.031

###

SETTINGS: in isobutanol, 288.15 K
EXPERIMENTAL ENDPOINT: solubility (mole fraction)

>>> measured_result("CCCN(CCC)S(=O)(=O)c1ccc(C(=O)O)cc1")
0.00453

###

SETTINGS: in n-pentanol, 298.15 K
EXPERIMENTAL ENDPOINT: solubility (mole fraction)

>>> measured_result("CCCN(CCC)S(=O)(=O)c1ccc(C(=O)O)cc1")
0.0146

###

SETTINGS: in methyl acetate, 318.15 K
EXPERIMENTAL ENDPOINT: solubility (mole fraction)

>>> measured_result("CCCN(CCC)S(=O)(=O)c1ccc(C(=O)O)cc1")
0.0152

###

SETTINGS: in n-butyl acetate, 288.15 K
EXPERIMENTAL ENDPOINT: solubility (mole fraction)

>>> measured_result("CCCN(CCC)S(=O)(=O)c1ccc(C(=O)O)cc1")
0.0038

###

SETTINGS: in acetone, 313.15 K
EXPERIMENTAL ENDPOINT: solubility (mole fraction)

>>> measured_result("CCCN(CCC)S(=O)(=O)c1ccc(C(=O)O)cc1")
0.0312

###

SETTINGS: in acetone, 303.15 K
EXPERIMENTAL ENDPOINT: solubility (mole fraction)

>>> measured_result("CCCN(CCC)S(=O)(=O)c1ccc(C(=O)O)cc1")
0.0234

###

SETTINGS: in ethyl acetate, 308.15 K
EXPERIMENTAL ENDPOINT: solubility (mole fraction)

>>> measured_result("CCCN(CCC)S(=O)(=O)c1ccc(C(=O)O)cc1")
0.00992

###

SETTINGS: in ethanol, 288.15 K
EXPERIMENTAL ENDPOINT: solubility (mole fraction)

>>> measured_result("CCCN(CCC)S(=O)(=O)c1ccc(C(=O)O)cc1")
0.00615

###

SETTINGS: in ethyl acetate, 298.15 K
EXPERIMENTAL ENDPOINT: solubility (mole fraction)

>>> measured_result("CCCN(CCC)S(=O)(=O)c1ccc(C(=O)O)cc1")
0.00659

###

SETTINGS: in ethyl acetate, 318.15 K
EXPERIMENTAL ENDPOINT: solubility (mole fraction)

>>> measured_result("CCCN(CCC)S(=O)(=O)c1ccc(C(=O)O)cc1")
0.0138

###

SETTINGS: in methyl acetate, 293.15 K
EXPERIMENTAL ENDPOINT: solubility (mole fraction)

>>> measured_result("CCCN(CCC)S(=O)(=O)c1ccc(C(=O)O)cc1")
0.00656
